Sourced from ChEMBL document CHEMBL3433997

We begin with a simple list: items and their reported inhibition.
Molecular target: Glucose transporter (Leishmania mexicana)
Assay: ST_JUDE_LEISH: Cytotoxicity at 2uM final concentration against transgenic Leishmania Mexicana promastigotes LmGT2 that are glucose transport deficient and complemented with the L. Mexicana glucose transporter 2. Activity is measured by DNA content using SYBR green in vitro
Type: functional

>  <structure.as.smiles>
CS(=O)(=O)CCNCc1cccc(-c2ccc3c(Nc4ccc(Oc5ccccc5)cc4)ccnc3c2)c1

>  <system>
Glucose transporter (Leishmania mexicana)

>  <inhibition (%)>
1.33

$$$$
>  <structure.as.smiles>
O=c1cc(NCCCN(Cc2cc3c(Cl)cc(Cl)cc3[nH]2)Cc2cc3c(Cl)cc(Cl)cc3[nH]2)[nH]c2ccccc12

>  <system>
Glucose transporter (Leishmania mexicana)

>  <inhibition (%)>
7.31

$$$$
>  <structure.as.smiles>
COc1cc(Cc2cnc(N)nc2N)cc(OCCNC(=O)OCc2ccccc2)c1OC

>  <system>
Glucose transporter (Leishmania mexicana)

>  <inhibition (%)>
-1.22

$$$$
>  <structure.as.smiles>
CC(C)N1CCC(N(Cc2ccc(-c3ccc(C(F)(F)F)cc3)cc2)C(=O)Cn2c(SCc3cccc(F)c3F)cc(=O)c3ccccc32)CC1

>  <system>
Glucose transporter (Leishmania mexicana)

>  <inhibition (%)>
0.55

$$$$

* * *

Molecular target: Solute carrier family 2, facilitated glucose transporter member 1 (Homo sapiens) (UniProt P11166)
Sequence (P11166 whole entry): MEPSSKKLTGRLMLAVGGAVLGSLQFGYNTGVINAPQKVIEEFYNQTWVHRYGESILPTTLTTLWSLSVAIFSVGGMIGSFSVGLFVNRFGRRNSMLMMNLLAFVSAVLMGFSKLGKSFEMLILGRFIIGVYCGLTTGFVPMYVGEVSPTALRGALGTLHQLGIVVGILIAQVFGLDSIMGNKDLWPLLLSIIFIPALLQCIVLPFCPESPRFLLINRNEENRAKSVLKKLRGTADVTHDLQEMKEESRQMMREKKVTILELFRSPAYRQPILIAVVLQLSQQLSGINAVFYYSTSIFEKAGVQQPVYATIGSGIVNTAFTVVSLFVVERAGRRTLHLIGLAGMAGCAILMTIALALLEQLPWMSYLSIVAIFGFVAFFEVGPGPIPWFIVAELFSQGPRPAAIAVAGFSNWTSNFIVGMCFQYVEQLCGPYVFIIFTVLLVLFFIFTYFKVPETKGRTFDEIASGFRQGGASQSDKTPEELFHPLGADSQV
Assay: ST_JUDE_LEISH: Cytotoxicity at 2uM final concentration against transgenic Leishmania Mexicana promastigotes LmGLUT1 that are glucose transport deficient and complemented with the human glucose transporter GLUT1. Activity is measured by DNA content using SYBR green in vitro
Assay type: functional
We begin with a simple list: items and their reported inhibition.
measure: inhibition (%)

>  <compound>
O=C1COC2(CN1C1CCN(Cc3ccc(O)c(Cl)c3)C1)c1ccccc1-c1ccccc12 (centres undefined)

>  <reading.unit>
%

>  <measured.number>
9.11

$$$$
>  <compound>
COc1ccc(NS(=O)(=O)c2ccccc2Br)cc1N1CCN(C)CC1

>  <reading.unit>
%

>  <measured.number>
0.24

$$$$
>  <compound>
N#Cc1ccc(N2CCN(Cc3cccc(-c4cccc(-c5nc6cc(F)ccc6[nH]5)c4)c3)CC2)nc1

>  <reading.unit>
%

>  <measured.number>
3.5

$$$$
>  <compound>
COc1ccc(-c2cccc(NC(=O)c3cccc(F)c3)c2)cc1CN1CCCN(C)CC1

>  <reading.unit>
%

>  <measured.number>
2.17

$$$$
>  <compound>
CO/C(=C\C=C\c1cc2cc(Cl)c(Cl)cc2[nH]1)C(=O)NCCCN1CCN(c2cccc(OC)c2)CC1

>  <reading.unit>
%

>  <measured.number>
8.59

$$$$
>  <compound>
Cc1cc(C(=O)Nc2ccc3c(ccn3C3CCCN(Cc4ccc(C(F)(F)F)cc4F)CC3)c2)no1 (centres undefined)

>  <reading.unit>
%

>  <measured.number>
-0.37

$$$$
>  <compound>
ON=C1CCc2cc(-c3cc(-c4ccc(OC5CCNCC5)cc4)oc3-c3ccncc3)ccc21

>  <reading.unit>
%

>  <measured.number>
1.43

$$$$
>  <compound>
Cc1cccc2nc(-c3ccc(-c4ccc(CNCc5ccc(S(C)(=O)=O)cc5)cc4)cc3)[nH]c12

>  <reading.unit>
%

>  <measured.number>
12

$$$$
>  <compound>
NCCCNc1nc(Nc2ccc(C(F)(F)F)cc2F)c2c(=O)[nH]ccc2n1

>  <reading.unit>
%

>  <measured.number>
3.4

$$$$
>  <compound>
COc1ccc(-c2cccc(NC(=O)c3ccc(Cl)cc3)c2)cc1CN1CCCN(C)CC1

>  <reading.unit>
%

>  <measured.number>
7.89

$$$$
>  <compound>
CC(C)CCN1CCC(Oc2ccc(NC(=O)c3ccsc3)cc2Cl)CC1

>  <reading.unit>
%

>  <measured.number>
-0.7

$$$$
>  <compound>
CC(C)(C)NCCN(Cc1ccc(-c2ccc(C(F)(F)F)cc2)cc1)C(=O)Cn1c(CCc2cccc(F)c2F)nc(=O)c2c1CCC2

>  <reading.unit>
%

>  <measured.number>
6.13

$$$$
>  <compound>
CCn1cc(C(=O)O)c(=O)c2cc(F)c(N3CCN(S(=O)(=O)c4ccc(N)cc4)CC3)cc21

>  <reading.unit>
%

>  <measured.number>
0.77

$$$$
>  <compound>
Cc1cc(N/N=C/c2ccccc2[N+](=O)[O-])c2cc(F)ccc2n1

>  <reading.unit>
%

>  <measured.number>
2.14

$$$$
>  <compound>
O=C(Nc1ccc(Br)cc1)N1CCC(n2c(-c3ccccc3)nc3cccnc32)CC1

>  <reading.unit>
%

>  <measured.number>
2.24

$$$$
>  <compound>
Cc1cc(=NN=Cc2ccccc2Cl)c2cc(F)ccc2[nH]1

>  <reading.unit>
%

>  <measured.number>
3.99

$$$$
>  <compound>
O=C(NCc1ccc(Cl)cc1)c1ccc(CN2CCCN(CC3CCCCC3)CC2)cc1

>  <reading.unit>
%

>  <measured.number>
4.46

$$$$
>  <compound>
CC1CCN(C(=O)CSc2nc(-c3ccc(C(C)C)cc3)no2)CC1

>  <reading.unit>
%

>  <measured.number>
7.2

$$$$
>  <compound>
O=C(NCCN1CCCc2ccccc21)C1CCN(c2nc(-c3ccc(Cl)cc3)no2)CC1

>  <reading.unit>
%

>  <measured.number>
1.63

$$$$
>  <compound>
O=c1c2ccccc2[nH]c2cc(Cl)ccc12

>  <reading.unit>
%

>  <measured.number>
5.11

$$$$
>  <compound>
CC(C)(C)c1cc(C(=O)Nc2ccc(C(=N)N)cc2)c(O)c(C(C)(C)C)c1

>  <reading.unit>
%

>  <measured.number>
-0.84

$$$$
>  <compound>
N#Cc1cccc(C(=O)NC2CCN(c3ccnc(Nc4ccc(F)cc4)n3)C2)c1 (centres undefined)

>  <reading.unit>
%

>  <measured.number>
2.56

$$$$
>  <compound>
OC1(C(F)(F)F)CC(c2ccccc2)=NN1c1nncc(-c2ccccc2)n1 (centres undefined)

>  <reading.unit>
%

>  <measured.number>
0.8

$$$$
>  <compound>
O=C(Nc1cccc(CN2CCN(Cc3ccc(O)cc3)CC2)c1)c1cccc(C(F)(F)F)c1

>  <reading.unit>
%

>  <measured.number>
6.03

$$$$
>  <compound>
COc1ccc(CN2CCC(C(=O)Nc3cccc(-c4cccc(Cl)c4)c3)CC2)cc1O

>  <reading.unit>
%

>  <measured.number>
5.45

$$$$
>  <compound>
COc1cc(CNCCCNc2nc3ncccc3[nH]2)c2[nH]cc(Br)c2c1

>  <reading.unit>
%

>  <measured.number>
23.9

$$$$
>  <compound>
Nc1nc(N)c2c(ccc3c2ccn3Cc2cccc(F)c2)n1

>  <reading.unit>
%

>  <measured.number>
102

$$$$
>  <compound>
Oc1ccc(CCCNc2nc(NCc3ccccc3-c3ccccc3)nc(N3CCNCC3)n2)cc1

>  <reading.unit>
%

>  <measured.number>
-0.81

$$$$
>  <compound>
Cn1cnc2c(Nc3ccncc3)nc(-c3ccc4ccccc4c3)nc21

>  <reading.unit>
%

>  <measured.number>
-0.3

$$$$
>  <compound>
NC1CCN(Cc2cccc(-c3cccc(-c4nc5ccccc5[nH]4)c3)c2)C1 (centres undefined)

>  <reading.unit>
%

>  <measured.number>
2.17

$$$$
>  <compound>
Cc1cccc2nc(-c3cccc(-c4ccc(NC(=O)NCc5ccccc5)cc4)c3)[nH]c12

>  <reading.unit>
%

>  <measured.number>
1.51

$$$$
>  <compound>
CN(C)Cc1ccc(-c2cccc(NC(=O)c3ccc(Cl)cc3)c2)cc1

>  <reading.unit>
%

>  <measured.number>
-2.32

$$$$
>  <compound>
Cc1c(C(=O)C2CC2CN2CCC(N3CCCCC3)CC2)sc2ccccc12 (centres undefined)

>  <reading.unit>
%

>  <measured.number>
2.43

$$$$
>  <compound>
CC(C)(C)NC(=O)c1ccc(Oc2ccc(OC(F)(F)F)cc2)c(NC(=O)C(C)(C)C)c1

>  <reading.unit>
%

>  <measured.number>
-3.08

$$$$
>  <compound>
COc1cc(Cc2cnc(N)nc2N)c2c(c1OC)OC(C)(C)C=C2

>  <reading.unit>
%

>  <measured.number>
4.17

$$$$
>  <compound>
CC(CN(C)C)C(=O)Nc1cccc(-c2ccc(-c3nc4cc(F)ccc4[nH]3)s2)c1 (centres undefined)

>  <reading.unit>
%

>  <measured.number>
3.85

$$$$
>  <compound>
CC(=O)Nc1cccc(C(=O)Nc2ccc(-c3ccc(-c4nc5cccc(C)c5[nH]4)s3)cc2)c1

>  <reading.unit>
%

>  <measured.number>
-0.38

$$$$
>  <compound>
CCOC(=O)C(=O)N1c2ccc(OCC)cc2-c2c(ssc2=S)C1(C)C

>  <reading.unit>
%

>  <measured.number>
-0.01

$$$$
>  <compound>
CS(=O)(=O)NCCCNCc1cccc(-c2cccc(-c3nc4cc(F)ccc4[nH]3)c2)c1

>  <reading.unit>
%

>  <measured.number>
1.53

$$$$
